Experiment: COS7 lysate on small-molecule microarray, probe aHis, 635 nm (AID 1123);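 note: z-score combines 667nm fluorescence intensity with signal-to-noise per printed compound spot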
Conditions: COS7 cell lysate, fluorescence, higher = more signal
Is composite z-score at least -0.05? Then yes. If not, no.

# count of solved cases: 5
>  <COMPOUND>
CCCNC(=O)[C@@H]1c2ccccc2C(=O)N(C2CCCCC2)[C@H]1c1ccc(CO)cc1

>  <CLASSIFICATION>
yes

$$$$
>  <COMPOUND>
C[C@H]1COC(=O)[C@H](Cc2ccccc2)NC(=O)[C@@H](C)COC(=O)[C@H](Cc2ccccc2)NC1=O

>  <CLASSIFICATION>
yes

$$$$
>  <COMPOUND>
CCCC=C(CCC)[C@@H](NC(=O)c1ccc(C(F)(F)F)cc1)c1ccccc1

>  <CLASSIFICATION>
yes

$$$$
>  <COMPOUND>
CO[C@H]1COC(=O)CC=C[C@H](C)COC(=O)[C@@H](OCc2ccccc2)C=C[C@@H]1C

>  <CLASSIFICATION>
no

$$$$
>  <COMPOUND>
COc1ccc(-c2cc3c(c(-c4ccccc4)n2)[Si](C(C)C)(C(C)C)O[C@H]3c2ccccc2)cn1

>  <CLASSIFICATION>
yes

$$$$

Please tell me: is the compound C=CCC(OC(C)=O)[C@@H]1[C@@H](N(Cc2cc3ccccc3o2)C(=O)c2ccc(C)cc2)c2cc(OCCCO)ccc2N1C(=O)c1ccc2ccccc2n1 (stereo not given in full) at or over -0.05 in terms of composite z-score?
yes

Dear colleague, could you confirm whether `COC(=O)C(CC#Cc1ccc2c(c1)[C@]1(C(=O)N2)[C@H](C(=O)N2CCCCCCC2)[C@H]2C(=O)O[C@H](c3ccccc3)[C@H](c3ccccc3)N2[C@@H]1c1ccc(O)cc1)C(=O)OC` has composite z-score at or above -0.05?
no

Is the recorded value of composite z-score equal to or greater than -0.05 for this compound? `CO[C@@H]1COC(=O)[C@@H]2CCCN2C(=O)CC=C[C@@H](C)[C@H](OC)COC(=O)[C@@H]2CCCN2C(=O)CC=C[C@H]1C`
no

Check if composite z-score >= -0.05 (inclusive). Item: COC(=O)c1ccc(C#CC(NP(=O)(c2ccccc2)c2ccccc2)c2ccccc2)cc1 (stereo not given)
yes

Identify whether the reported composite z-score of the following compound is -0.05 or greater: `CCC(=O)[C@]12O[C@@]3([C@@H]4C(=O)OCC[C@@H]41)N(CC)C(C)=C(C(=O)OC)[C@@H](c1ccccc1)N3C2=O`
no

API: above_or_equal(metric=composite z-score, cutoff=-0.05) for item `COCCOC(=O)N1C(=O)[C@@]2(c3cc(C#CCNC(N)=O)ccc31)[C@H](c1ccccc1OCCO)N1[C@H](c3ccccc3)[C@H](c3ccccc3)OC(=O)[C@H]1[C@@H]2C(=O)NC[C@H](O)c1ccccc1`
yes

Has `O=[N+]([O-])c1ccc(C[n+]2ccc3ccc(O)cc3c2)o1` a recorded composite z-score greater than or equal to -0.05?
yes

Determine whether this compound has composite z-score no lower than -0.05: C[C@H]1NC(=O)[C@@H](C)NC(=O)[C@@]23C(=O)N[C@@H](Cc4ccccc4)C2[C@H](C)[C@@]2(C)O[C@H]2C3/C=C/C/C=C\CNC1=O (stereo not given in full)
no

Reported composite z-score at or above -0.05? `CC(=O)Nc1ccc([C@H]2[C@H](C)CC[C@H]3C(=O)N4[C@@H](CC[C@@H](C)[C@@H]4c4ccc(NC(C)=O)cc4)C(=O)N32)cc1`
yes

Source: PubChem BioAssay
